# Read-out: CD69, CD69 (gene 969)
# TEST: BSK_SAg_CD69: BioMAP Diversity Plus: SAg Assay for CD69 Biomarker Activity (AID 2283089)
# DETAILS: primary human HUVEC with PBMC; actives raise or lower the signal
Activity calls are given as the source filed them. The calls were made as follows: active = hit-call score of the fitted dose curve at least 0.9, where 1 is the maximum; inactive = score below 0.9.
Labels: 1.0 = active, 0.0 = inactive

>>> answer_label("COc1cc(OC)nc(NC(=O)NS(=O)(=O)c2ncccc2C(=O)N(C)C)n1")
0.0
>>> answer_label("ClCC(Cl)CCl")
0.0
>>> answer_label("OCc1ccco1")
0.0
>>> answer_label("CC(C)CCCCCCOC(=O)c1ccccc1C(=O)OCCCCCCC(C)C")
0.0
>>> answer_label("NC(=S)Nc1ccccc1")
0.0
>>> answer_label("BrCCBr")
0.0
>>> answer_label("CCOP(=S)(OCC)SCSP(=S)(OCC)OCC")
0.0
>>> answer_label("COP(=S)(OC)Oc1c(Cl)cc(C)cc1Cl")
0.0
>>> answer_label("C=C(C)C(=O)[O][Sn]([CH2]CCC)([CH2]CCC)[CH2]CCC")
1.0

----------
# Read-out: Transforming growth factor beta 1 (TGFb1), TGFB1 (gene 7040)
# TEST: BSK_KF3CT_TGFb1: BioMAP Diversity Plus: KF3CT Assay for Transforming growth factor beta 1 (TGFb1) Biomarker Activity (AID 2283072)
# DETAILS: primary human keratinocytes with fibroblasts; actives raise or lower the signal
Calls of active or inactive are those of the source. The calls were made as follows: active = hit-call score of the fitted dose curve at least 0.9, where 1 is the maximum; inactive = score below 0.9.
Labels: true (1) = active, false (0) = inactive

>>> answer_label("O=[N+]([O-])c1ccc2c3c(cccc13)CC2")
"false (0)"
>>> answer_label("O=C1C2(Cl)C3(Cl)C4(Cl)C(Cl)(Cl)C5(Cl)C3(Cl)C1(Cl)C5(Cl)C24Cl (stereo not given)")
"true (1)"
>>> answer_label("O=C(O)C(F)(F)C(F)(F)C(F)(F)C(F)(F)C(F)(F)C(F)(F)F")
"false (0)"
>>> answer_label("ClC(Cl)=C(Cl)C(Cl)=C(Cl)Cl")
"true (1)"
>>> answer_label("CCOP(=S)(OCC)Oc1nc(Cl)c(Cl)cc1Cl")
"false (0)"
>>> answer_label("ClC1(Cl)C2(Cl)C3(Cl)C4(Cl)C(Cl)(Cl)C5(Cl)C3(Cl)C1(Cl)C5(Cl)C24Cl (stereo not given)")
"false (0)"
>>> answer_label("CN(C)N=O")
"false (0)"
>>> answer_label("CCC(C)(C)c1ccc(O)c(C(C)(C)CC)c1")
"true (1)"
>>> answer_label("CCNc1nc(NC(C)(C)C)nc(SC)n1")
"false (0)"
>>> answer_label("NC(=S)Nc1ccccc1")
"false (0)"

----------
# Read-out: Human Leukocyte Antigen - DR isotype (HLADR), HLA-DRA (gene 3122)
# TEST: BSK_3C_HLADR: BioMAP Diversity Plus: 3C Assay for Human Leukocyte Antigen - DR isotype (HLADR) Biomarker Activity (AID 2283019)
# DETAILS: primary human endothelial cells (HUVEC); actives raise or lower the signal
Active and inactive are the calls of the source. Rule for the calls: active = hit-call score of the fitted dose curve at least 0.9, where 1 is the maximum; inactive = score below 0.9.
Labels: t = active, f = inactive

>>> answer_label("CC(=O)[O][Hg][c]1ccccc1")
"t"
>>> answer_label("O=S(=O)(c1ccc(Cl)cc1)c1ccc(Cl)cc1")
"f"
>>> answer_label("COP(=S)(OC)Oc1ccc(Sc2ccc(OP(=S)(OC)OC)cc2)cc1")
"t"
>>> answer_label("COC(=O)c1sccc1S(=O)(=O)NC(=O)Nc1nc(C)nc(OC)n1")
"f"
>>> answer_label("CC(C)(C)c1cc(O)ccc1O")
"t"
>>> answer_label("ClC1=C(Cl)[C@]2(Cl)[C@H]3[C@H]([C@H]4C=C[C@H]3C4)[C@@]1(Cl)C2(Cl)Cl")
"t"
>>> answer_label("C[C@]12CCC(=O)C[C@@H]1CC[C@@H]1[C@@H]2CC[C@]2(C)[C@@H](O)CC[C@@H]12")
"t"
>>> answer_label("COP(=S)(OC)Oc1ccc(S(=O)(=O)N(C)C)cc1")
"t"
>>> answer_label("CCNc1nc(NC(C)(C)C)nc(SC)n1")
"t"
>>> answer_label("O=[N+]([O-])c1ccc2c3c(cccc13)CC2")
"t"
>>> answer_label("COP(=S)(OC)Oc1cc(Cl)c(Cl)cc1Cl")
"t"
>>> answer_label("CCOC(=O)/C=C(C)/C=C/C[C@@H](C)CCCC(C)C")
"t"
>>> answer_label("O=C(O)C(F)(F)C(F)(F)C(F)(F)C(F)(F)C(F)(F)C(F)(F)F")
"f"
>>> answer_label("CCCCCCCCc1ccc(O)cc1")
"t"
>>> answer_label("CC(C)c1ccc(CO)cc1")
"f"
>>> answer_label("CC12CC1(C)C(=O)N(c1cc(Cl)cc(Cl)c1)C2=O (stereo unspecified)")
"f"
